# TARGET_ENTITY: GST tagged IRAK4 (Homo sapiens)
# Sequence (Q9NWZ3 1-460): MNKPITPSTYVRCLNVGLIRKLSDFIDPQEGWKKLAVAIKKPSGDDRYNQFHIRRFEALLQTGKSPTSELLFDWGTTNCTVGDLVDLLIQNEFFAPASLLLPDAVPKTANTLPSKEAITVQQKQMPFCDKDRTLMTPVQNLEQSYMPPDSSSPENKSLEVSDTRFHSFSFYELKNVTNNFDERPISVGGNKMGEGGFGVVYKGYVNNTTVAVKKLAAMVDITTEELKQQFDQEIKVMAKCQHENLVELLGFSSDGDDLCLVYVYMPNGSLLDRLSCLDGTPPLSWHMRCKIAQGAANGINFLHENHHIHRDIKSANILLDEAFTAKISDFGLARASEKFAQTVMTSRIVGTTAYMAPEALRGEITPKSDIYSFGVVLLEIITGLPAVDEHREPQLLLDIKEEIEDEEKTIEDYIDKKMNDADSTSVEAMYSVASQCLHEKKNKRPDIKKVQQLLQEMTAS
pIC50: −log10 of the molar value.
OBSERVATION_TYPE: pIC50

Sample answers from the record:
[[record]]
molecule = "COc1cc2c(N3CCC[C@H](N)C3)ncc(C#N)c2cc1C(N)=O [XXXVI]"
assay_result = "5.52 to 6.30"

[[record]]
molecule = "COc1cc2c(OCC3CCC(=O)N3)nccc2cc1OC(N)=O (stereo not drawn) [II]"
assay_result = "5.00 to 5.52"

[[record]]
molecule = "COc1cc2c(N3CCC(N)CC3)nccc2cc1C(N)=O [Compound XXVII]"
assay_result = "5.52 to 6.30"

[[record]]
molecule = "COc1cc2c(N3CCC[C@H](N)C3)nccc2cc1C(N)=O [Compound XX]"
assay_result = "> 6.30"

[[record]]
molecule = "C[C@@H]1CC(=O)N2COCCOc3cc4c(nccc4cc3C(N)=O)OC[C@H]12 [Compound XXV]"
assay_result = "> 6.30"

[[record]]
molecule = "COc1cc2c(NCC3CCC(=O)N3)nccc2cc1C(N)=O (stereo not drawn) [VII]"
assay_result = "5.52 to 6.30"

[[record]]
molecule = "NC(=O)c1cc2ccnc3c2cc1OCCOCN1C(=O)CC[C@H]1CO3 [XVIII]"
assay_result = "> 6.30"

[[record]]
molecule = "CC#Cc1cnc(N2CCC[C@H](N)C2)c2cc(OC)c(C(N)=O)cc12 [XXXIV]"
assay_result = "> 6.30"


Reported pIC50 for COc1cc2c(OCC3CCC(=O)N3)nccc2cc1C(=O)NO (stereo not drawn) [IV] : what is it?
5.00 to 5.52

Fill in: pIC50 of CC[C@@H]1CC(=O)N[C@@H]1CNc1nccc2cc(C(N)=O)c(OC)cc12 [Compound XXVIII] is ___
> 6.30

Value lookup for pIC50; key = COc1cc2c(N[C@@H]3CCNC3)nccc2cc1C(N)=O [Compound XXXII]
5.52 to 6.30

Entry under review: COc1cc2c(N[C@@H]3CCCNC3)nccc2cc1C(N)=O [Compound XXIX] . Reported pIC50?
5.52 to 6.30
